// cross-source set; read-out = pKi; system = Tissue-type plasminogen activator (Homo sapiens, UniProt P00750)
Sequence (P00750 whole entry): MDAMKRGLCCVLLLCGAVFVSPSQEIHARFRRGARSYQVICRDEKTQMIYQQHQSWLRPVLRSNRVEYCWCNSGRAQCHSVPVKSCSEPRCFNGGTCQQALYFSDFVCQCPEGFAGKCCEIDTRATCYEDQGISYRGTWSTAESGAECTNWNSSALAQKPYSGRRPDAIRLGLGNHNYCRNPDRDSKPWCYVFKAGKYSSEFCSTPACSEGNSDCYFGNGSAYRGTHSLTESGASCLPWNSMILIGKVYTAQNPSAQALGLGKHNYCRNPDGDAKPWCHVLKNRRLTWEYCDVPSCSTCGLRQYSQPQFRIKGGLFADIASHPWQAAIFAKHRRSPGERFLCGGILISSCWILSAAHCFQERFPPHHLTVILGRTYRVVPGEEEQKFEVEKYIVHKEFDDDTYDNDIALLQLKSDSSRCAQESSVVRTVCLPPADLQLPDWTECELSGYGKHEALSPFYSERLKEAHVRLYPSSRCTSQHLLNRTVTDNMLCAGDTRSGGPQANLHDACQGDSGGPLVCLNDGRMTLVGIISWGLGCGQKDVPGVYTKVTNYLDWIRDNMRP
Friendly reminder that pKi comes from taking -log10 of the concentration in mol/L.

(Q) Supply pKi value. Item: N=C(N)c1ccc2cc(C(=O)Nc3ccc4c(c3)C(C3CCCC3)NCC4)ccc2c1 (stereo not given)
(A) 5.40

(Q) Consider the molecule N=C(N)NCc1ccc(C2CC/C(=C/I)OC2=O)cc1 (stereo not given) and give its recorded pKi.
(A) 6.92

(Q) Given the molecule `CCS(=O)(=O)c1cc(-c2cc(C(=O)Nc3ccccc3)cc3ccc(C(=N)N)cc23)co1` , write its reported pKi.
(A) 5.08

(Q) Return the recorded pKi value; entry: `CN1CCOc2ccccc2CNC(=O)Cn2c(Cl)cnc(c2=O)N[C@@H](Cc2ccccc2)CNC(=O)C1`
(A) 5.41

----------
Please find below Ki data on Tissue-type plasminogen activator (Homo sapiens, UniProt P00750) compiled from the literature.
Classes by Ki: lower: < 4 µM; middle: ≥ 4 µM and < 30 µM; upper: ≥ 30 µM

(Q) Would you mind sorting `N=C(N)c1ccc2cc(C(=O)Nc3ccc(CN)cc3)cc(Nc3ncccn3)c2c1` into the appropriate category?
(A) lower

(Q) Place this compound in its band: `CSc1sc(C(=N)N)cc1-c1nc(-c2ccc3c(c2)OCO3)cs1`
(A) lower

(Q) Note: place this compound into its band. Item: `CN(CC(=O)N[C@@H](CCCCN)B(O)O)C(=O)CCc1ccccc1`
(A) lower

(Q) For N=C(N)c1ccc2cc(C(=O)Nc3ccccc3)cc(C3CCOC3)c2c1 (stereo not drawn) , which Ki bin applies?
(A) lower

(Q) Classify this compound: `NC(N)=Nc1ccc2ccccc2n1`
(A) upper

(Q) For this compound, which bin applies? `CCSc1cc(-c2cc(C(=O)Nc3ccccc3)cc3ccc(C(=N)N)cc23)co1`
(A) lower

(Q) Tag the class for `N=C(N)c1ccc(O)c(/C=C/CNC(=O)c2ccc(-c3ccnc(C(N)=O)c3)cc2)c1`
(A) middle

(Q) Into which bin does this compound go? `NC(N)=Nc1ncc(Cl)c2ccc(S(=O)(=O)N3CCC[C@@H]3C(=O)O)cc12`
(A) upper

(Q) Band assignment needed for `N=C(N)c1ccc2cc(C(=O)Nc3ccccc3)cc(Br)c2c1` please.
(A) middle

(Q) Pick a category. Item: `CCc1ccc(NC(=O)c2ccc3cc(C(=N)N)ccc3c2)cc1`
(A) upper

(Q) Sort into band: `CN(C)CCN(C1(C(=O)O)CCCC1)S(=O)(=O)c1ccc2c(Cl)cnc(N=C(N)N)c2c1`
(A) middle

(Q) Category lookup for the compound `CN(CC(=O)N[C@@H](CCC/N=C\N)B(O)O)C(=O)CCc1ccccc1`
(A) middle

(Q) Consider CC(C)OC(=O)C(Cc1cccc(C(N)N)c1)NC(=O)CNS(=O)(=O)c1ccc2ccccc2c1 (stereo not drawn) . To which Ki class does it belong?
(A) upper

(Q) Could you place `NC(N)=Nc1nccc2ccc(Br)cc12` in its proper category? Many thanks.
(A) upper

(Q) Exercise: read the entry `COc1ccc2ccc(S(=O)(=O)N[C@H]3CCN(Cc4cc(C(=N)N)ccc4O)C3=O)cc2c1` and state which class it falls under.
(A) lower

(Q) Lab log: FC(F)(F)CN1CCCCC1CCNc1nccc2oc(Cc3cc(Cl)ccc3-n3cncn3)nc12 (stereo not drawn) — assign Ki category
(A) lower

(Q) Given `NC(N)=Nc1ncc(Cl)c2ccc(S(=O)(=O)NC3CCCC3)cc12` , name the class its Ki places it in.
(A) upper

(Q) Returns: class label. Input: `N=C(N)c1ccc2cccc(N)c2c1`
(A) middle

(Q) Input `CC(C)N1CC[C@@H](NC(=O)c2cc3ccccc3n2Cc2cc(-c3ccc(Cl)s3)on2)C1` ; output its category
(A) upper

(Q) Which bin should I file `N[C@@H](C(=O)N1CCC[C@H]1C(=O)NCc1cc(Cl)ccc1OCC(=O)NC1CC1)C1CCCCC1` under?
(A) upper

(Q) Class (by measured Ki) for `O=C(NC1CN(c2ccncc2)C1)c1cc2ccccc2n1Cc1cc(-c2ccc(Cl)s2)on1`
(A) upper

(Q) Which Ki category applies to `O=C(c1cc2ccccc2n1Cc1cc(-c2ccc(Cl)s2)on1)N1CCC(Nc2ccncc2)CC1` here?
(A) upper

(Q) Sort into band: CCOC(=O)N1CCN(C(=O)C(Cc2cccc(C(N)N)c2)NS(=O)(=O)c2c(C(C)C)cc(C(C)C)cc2C(C)C)CC1 (stereo not drawn)
(A) lower

(Q) Category of `COc1ccc(-n2nc(C(N)=O)cc2C(=O)Cc2ccc(-n3ccccc3=O)cc2F)cc1` , please.
(A) upper

(Q) Tag the class for `N=C(N)Nc1ncc(Cl)cc1/C=C/c1ccccc1`
(A) upper

(Q) Would you mind sorting `CN(CC(=O)O)S(=O)(=O)c1ccc2c(Cl)cnc(N=C(N)N)c2c1` into the appropriate category?
(A) upper

(Q) State the band of `NC(N)=Nc1ncc(Cl)c2ccc(S(=O)(=O)NC3(C(=O)N4CCOCC4)CCCC3)cc12`
(A) upper

(Q) The entry to classify is `O=C1Cn2c(Cl)cnc(c2=O)N[C@@H](Cc2ccccc2)CNC(=O)OC/C=C/COc2ccc(Cl)cc2CN1` ; which class holds it?
(A) lower

----------
The entries below pair compounds with pKi values for Tissue-type plasminogen activator (Homo sapiens, UniProt P00750), as found in several publications.
pKi: −log10 of the molar value.

(Q) Provide one value: measured pKi of `CC(C)N1CCC(NC(=O)c2cc3ccccc3n2Cc2cc3ccc(Cl)cc3s2)CC1`
(A) < 4.00

(Q) Supply pKi value. Item: `CC(C)[C@H](NS(=O)(=O)c1ccc2c(Cl)cnc(N=C(N)N)c2c1)C(=O)O`
(A) < 4.00

(Q) Indicate its recorded pKi; the compound in question is `N#Cc1ccc2cc(NC(=O)c3ccccc3)ccc2c1`
(A) < 4.00

(Q) Note down pKi recorded for `NC(N)=Nc1ncc(Cl)c2ccc(S(=O)(=O)N3CCC[C@H]3C(=O)O)cc12`
(A) < 4.00

(Q) Dear colleague, please send me the reported pKi for `N=C(N)c1cccc(CN2CC[C@H](NS(=O)(=O)c3cc4nc(Cl)ccc4s3)C2=O)c1` when you can.
(A) < 5.06

(Q) Please look at this compound and report its pKi: `NC(N)=Nc1ncc(Cl)c2ccc(S(=O)(=O)NC3(C(=O)O)CCCCC3)cc12`
(A) < 4.00

(Q) Answer with the recorded pKi of `Cc1nn(-c2ccc3onc(N)c3c2)c2c(=O)n(-c3ccc(-c4ccccc4CN4CC[C@@H](O)C4)cc3)c(C)nc12` only.
(A) < 4.48

----------
// note: Ki values for Tissue-type plasminogen activator (Homo sapiens) were reported in different studies

(Q) Give Ki for this entry on Tissue-type plasminogen activator (Homo sapiens): `CCN1CCC(NC(=O)c2cc3ccccc3n2Cc2cc(-c3ccc(Cl)s3)on2)CC1`
(A) > 100 µM

(Q) With Tissue-type plasminogen activator (Homo sapiens) as the test system, provide measured Ki for this compound: `O=C(NC1CCN(C2CC2)CC1)c1cc2ccccc2n1Cc1cc(-c2ccc(Cl)s2)on1`
(A) > 100 µM

(Q) Param request: Ki | system Tissue-type plasminogen activator (Homo sapiens) | item `Cc1cc2cc(C)c1CCOC(=O)Nc1ccc(S(=O)(=O)C3CC3)c(c1)CN(C)C(=O)[C@@H]2Nc1ccc2cc[nH]c(=O)c2c1`
(A) > 10 µM

(Q) State Ki (Tissue-type plasminogen activator (Homo sapiens)) of `O=C(CCS(=O)(=O)c1ccc2cc(Cl)ccc2c1)N1CCC(N2Cc3cnc(CO)n3C2=O)CC1` .
(A) > 60 µM

(Q) Give Ki only, for `N=C(N)c1ccc2ccccc2c1` , using Tissue-type plasminogen activator (Homo sapiens) data.
(A) > 100 µM

(Q) Retrieve Ki on Tissue-type plasminogen activator (Homo sapiens); query `O=C(CCS(=O)(=O)c1ccc2cc(Cl)ccc2c1)N1CCN(c2cccc3nc(CO)cn23)CC1`
(A) > 60 µM

(Q) Under Tissue-type plasminogen activator (Homo sapiens), report Ki for `O=C(NC1CCN(c2ccncc2)CC1)c1cc2ccccc2n1Cc1cc(-c2ccc(Cl)s2)on1`
(A) > 100 µM

----------
A compilation of Ki values for Tissue-type plasminogen activator (Homo sapiens) from the published literature.

(Q) Using Tissue-type plasminogen activator (Homo sapiens) as the test system, report measured Ki of `COC(=O)Nc1ccc2c(c1)NC(=O)CC/C=C/C[C@H](NC(=O)/C=C/c1cc(Cl)ccc1-n1cnnn1)c1nc-2c[nH]1` .
(A) > 6.15 µM

(Q) Would you please give the reported Ki of `N=C(N)c1cccc(CN2CC[C@H](NS(=O)(=O)c3ccc4ccccc4c3)C2=O)c1` with Tissue-type plasminogen activator (Homo sapiens)?
(A) > 10 µM

(Q) Provide measured Ki on Tissue-type plasminogen activator (Homo sapiens) for N=C(N)c1ccc2cc(C3CC3c3ccccc3)cc(Br)c2c1 (stereo not given) please.
(A) 30.8 µM

(Q) Report Ki from Tissue-type plasminogen activator (Homo sapiens) testing of `COC(=O)Nc1ccc(-c2cnnc([C@H](Cc3ccccc3)NC(=O)/C=C/c3cc(Cl)ccc3-n3cnnn3)c2)cc1`
(A) > 14.7 µM

(Q) Lab note: Tissue-type plasminogen activator (Homo sapiens) assay, enter Ki for `COc1ccc2sc(S(=O)(=O)N[C@H]3CCN(Cc4cc(C(=N)N)ccc4N)C3=O)cc2n1` here
(A) > 8.7 µM

(Q) Write down the reported Ki (system: Tissue-type plasminogen activator (Homo sapiens)) of `N=C(N)c1ccc(O)c(CCCNC(=O)c2ccc(-c3cccc(C(N)=O)c3)cc2)c1`
(A) > 8.7 µM

(Q) # return Ki of `Nc1noc2ccc(-n3nc(C(F)(F)F)c4c3C(=O)N(c3ccc(-c5ccccc5CN5CC[C@@H](O)C5)cc3)CC4)cc12` (system: Tissue-type plasminogen activator (Homo sapiens))
(A) > 2.8 µM

(Q) State Ki (Tissue-type plasminogen activator (Homo sapiens)) of `NC[C@H]1CC[C@H](C(=O)N[C@@H](Cc2ccccc2)c2cc(-c3ccc4[nH]nc(O)c4c3)ccn2)CC1` .
(A) > 21.9 µM

(Q) Write Ki of `NC[C@H]1CC[C@H](C(=O)N[C@@H](Cc2ccccc2)c2cc(-c3ccc4c(N)n[nH]c4c3)ccn2)CC1` ; system used: Tissue-type plasminogen activator (Homo sapiens)
(A) > 21.9 µM

(Q) Give Ki for this entry on Tissue-type plasminogen activator (Homo sapiens): `COC(=O)Nc1ccc(-c2ccnc([C@H](Cc3ccccc3)NC(=O)[C@H]3CC[C@H](CN)CC3)c2)cc1`
(A) > 21.9 µM
